Target: Endothelial PAS domain-containing protein 1 (Homo sapiens, UniProt Q99814)
Sequence (Q99814 whole entry, the tested form may be a part): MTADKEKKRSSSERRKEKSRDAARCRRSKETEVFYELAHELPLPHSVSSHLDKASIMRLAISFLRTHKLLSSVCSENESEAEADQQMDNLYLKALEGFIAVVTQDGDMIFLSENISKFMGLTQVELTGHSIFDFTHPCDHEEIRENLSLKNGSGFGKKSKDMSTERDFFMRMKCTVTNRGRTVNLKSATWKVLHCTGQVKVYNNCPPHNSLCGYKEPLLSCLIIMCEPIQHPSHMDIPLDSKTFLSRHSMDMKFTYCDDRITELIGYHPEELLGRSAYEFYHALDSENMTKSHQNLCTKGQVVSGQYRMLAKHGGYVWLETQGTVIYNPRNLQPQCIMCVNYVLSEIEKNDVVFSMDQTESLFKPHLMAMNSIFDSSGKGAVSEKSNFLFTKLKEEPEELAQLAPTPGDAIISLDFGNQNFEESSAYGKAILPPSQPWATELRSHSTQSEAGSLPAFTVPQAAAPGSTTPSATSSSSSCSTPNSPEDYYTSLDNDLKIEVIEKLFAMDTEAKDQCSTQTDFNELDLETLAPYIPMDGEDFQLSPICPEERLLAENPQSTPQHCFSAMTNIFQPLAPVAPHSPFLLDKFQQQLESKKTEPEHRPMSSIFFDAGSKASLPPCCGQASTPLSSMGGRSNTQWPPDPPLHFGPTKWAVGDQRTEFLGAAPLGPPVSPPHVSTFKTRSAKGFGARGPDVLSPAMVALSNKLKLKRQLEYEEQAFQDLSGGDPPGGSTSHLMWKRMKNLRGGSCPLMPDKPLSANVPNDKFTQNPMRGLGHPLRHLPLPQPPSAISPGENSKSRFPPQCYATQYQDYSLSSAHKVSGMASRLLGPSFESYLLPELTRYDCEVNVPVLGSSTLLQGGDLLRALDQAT
Experiment: Inhibition of HIF-2alpha activity in human 786-O cells by luciferase assay
Assay type: cell-based
Conditions: read-out: EC50
# key: entry, value: EC50
assay metric: EC50 (µM)

* CC1=C2CC/C(C)=C/CC[C@]3(C)O[C@@H]3CC/C(C)=C/[C@H]2OC1 | 183
* C=C1CC/C=C(/C)CC[C@@H]2C([C@@H](OC(C)=O)[C@H](C=C(C)C)OC(C)=O)=CO[C@H](OC(C)=O)[C@@H]12 | 3.4
* COC(C)(C)/C1=C/C=C(\C)CC[C@H]2O[C@@]2(C)CC/C=C(\C)CC1 (relative stereo) | 149
* C=C1CC[C@H](OO)C(=C)CC[C@@H]2C([C@@H](OC(C)=O)[C@H](C=C(C)C)OC(C)=O)=CO[C@H](OC(C)=O)[C@@H]12 | 11.8
* C=C(C)[C@@H]1CC(=O)/C(C)=C/CC/C(C)=C/CC[C@]2(C)O[C@@H]2C1 | 108
* C=C1C[C@@H](O)/C=C(/C)CC[C@@H]2C([C@@H](OC(C)=O)[C@H](C=C(C)C)OC(C)=O)=CO[C@H](OC(C)=O)[C@@H]12 | 6.2

Values from ChEMBL document CHEMBL1759877
